compounds and their reported pIC50
Target: Genome polyprotein (dengue virus type 2)
Format: functional, Thailand/16681/1984
pIC50: −log10 of the molar value.

The following compounds have reported results that may help.
| structure.smiles.string | pIC50 |
| --- | --- |
| CC(C)(C#N)CS(=O)(=O)N1CCC([C@H](NC(=O)OCc2ccccc2)C(=O)Nc2cccc(CN)c2)CC1 | < 4.00 |
| O=C(Nc1ccc2c(c1)OCO2)c1cc(Cl)cc2[nH]ncc12 | < 4.00 |
| c1coc(CSCc2nc(-c3nc[nH]n3)no2)c1 | < 4.00 |
| Cc1c(C(=O)Nc2cccc(C3CCNCC3)c2)cc(C2CC2)n1C | < 4.00 |
| O=C(Nc1cc(Cl)cc(C(=O)NC[C@@H]2CNCCC2(F)F)c1)OCc1ccccc1 | < 4.00 |
| NCc1ccncc1NS(=O)(=O)c1ccc(Oc2ccccc2Cl)cc1 | < 4.00 |

input: Which pIC50 value is on record for "C[C@H]1CCC[C@H](C(=O)Nc2cccc(CN)c2)O1" ?
output: < 4.00

input: Which pIC50 value is on record for "CCc1onc(C2CCOCC2)c1C(=O)Nc1cccc(CN)c1" ?
output: < 4.00

input: Which pIC50 value is on record for "NCc1cccc(NC(=O)[C@@H]2C[C@@H](O)CN2C(=O)C23CC4CC(CC(C4)C2)C3)c1" ?
output: < 4.00

input: Which pIC50 value is on record for "CC(C)N1CCC([C@H](NC(=O)OCc2ccccc2)C(=O)Nc2cccc(CN)c2)CC1" ?
output: < 4.00

----------
Target: Genome polyprotein (dengue virus type 2, UniProt P29990)
Sequence (P29990 1346-1475 limits assumed): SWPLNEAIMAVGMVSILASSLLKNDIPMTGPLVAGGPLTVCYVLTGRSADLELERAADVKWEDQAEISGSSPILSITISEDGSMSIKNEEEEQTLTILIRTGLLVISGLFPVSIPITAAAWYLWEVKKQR
Sequence (P29990 1476-2093 limits assumed): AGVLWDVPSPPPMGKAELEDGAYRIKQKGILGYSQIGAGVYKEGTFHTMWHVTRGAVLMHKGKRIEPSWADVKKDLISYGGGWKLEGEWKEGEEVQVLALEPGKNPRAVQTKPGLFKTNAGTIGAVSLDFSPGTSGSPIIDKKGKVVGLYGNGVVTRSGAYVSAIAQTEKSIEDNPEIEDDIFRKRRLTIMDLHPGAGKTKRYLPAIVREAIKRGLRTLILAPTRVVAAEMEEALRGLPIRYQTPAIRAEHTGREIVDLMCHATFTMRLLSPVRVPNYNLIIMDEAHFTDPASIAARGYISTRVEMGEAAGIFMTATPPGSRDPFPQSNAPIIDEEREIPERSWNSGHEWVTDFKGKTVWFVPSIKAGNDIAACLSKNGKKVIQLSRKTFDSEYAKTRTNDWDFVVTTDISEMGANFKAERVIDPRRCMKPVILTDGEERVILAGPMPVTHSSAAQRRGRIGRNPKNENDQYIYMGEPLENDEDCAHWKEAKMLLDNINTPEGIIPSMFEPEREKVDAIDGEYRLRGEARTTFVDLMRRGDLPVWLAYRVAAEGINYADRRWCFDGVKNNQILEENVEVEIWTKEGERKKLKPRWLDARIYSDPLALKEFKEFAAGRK
Format: functional, Thailand/16681/1984
pIC50: −log10 of the molar value.
molecules and their reported pIC50

| structure.smiles.string | pIC50 |
| --- | --- |
| CC(C)[C@H](NC(=O)c1cc(Cl)cc(NC(=O)OCc2ccccc2)c1)C(=O)O | < 4.00 |
| NCc1cc(-c2ccncc2)cc([C@@H]2C[C@H]2c2cc(Cl)cc(NC(=O)OCc3ccccc3)c2)c1 | < 4.00 |
| CC(=O)N(c1ccc2c(c1)CNC2)[C@H](C(=O)NCC(F)F)c1cc(Cl)cc(C2CC2)c1 | < 4.00 |
| COCc1cc(Cl)cc([C@H](Nc2ccc3c(c2)CNC3)C(=O)NCC(F)F)c1 | < 4.00 |

# next molecule below
input: Which pIC50 value is on record for "NCc1cccc(NC(=O)[C@H](NC(=O)OCc2ccccc2)C2CCN(Cc3ccccn3)CC2)c1" ?
output: < 4.00

----------
compounds and their reported pIC50
Biological target: UniProt:P29990
Assay type: functional, Thailand/16681/1984
pIC50: −log10 of the molar value.

| structure.smiles.string | pIC50 |
| --- | --- |
| O=C(O)c1c(F)cc(F)cc1NS(=O)(=O)c1ccc(Oc2ccccc2Cl)cc1 | 4.38 |
| CS(=O)(=O)Nc1ccc(Cl)cc1C(=O)Nc1cccc(CN)c1 | < 4.00 |
| Brc1ccsc1CSc1cnn[nH]1 | < 4.00 |
| CCOC(=O)c1csc([C@H]2CCCN2C(=O)Nc2ccc3c(c2)CNC3)n1 | < 4.00 |
| Cn1nc(C(=O)Nc2cc(CCCN)ccn2)cc1C1CC1 | < 4.00 |
| C=CC[C@H](Nc1cccc(-c2nn[nH]n2)c1)c1cc(Cl)cc(NC(=O)OCc2ccccc2)c1 | 5.16 |
| O=C(Nc1cc(Cl)cc(C(=O)N2CC[C@H](C(=O)O)C2)c1)OCc1ccccc1 | < 4.00 |
| CC(C)CNC(=O)[C@H](Nc1cccc(-c2nnn[nH]2)c1)c1cc(Cl)cc(C2CC2)c1 | 4.13 |

input: Which pIC50 value is on record for "O=C(NC1CCOCC1)[C@H](Nc1ccc2c(c1)CNC2)c1cc(Cl)cc2[nH]ncc12" ?
output: < 4.00

input: Which pIC50 value is on record for "c1nc(C2CCN(Cc3n[nH]c4c3COCC4)CC2)cs1" ?
output: < 4.00

input: Which pIC50 value is on record for "NCCc1cccc(-c2cccc([C@@H](NC(=O)OCc3ccccc3)C(=O)Nc3cccc(CN)c3)c2)c1" ?
output: 4.47

input: Which pIC50 value is on record for "NCc1cccc(NC(=O)c2cc(Cl)cc(NC(=O)NCc3ccccc3)c2)c1" ?
output: < 4.00

input: Which pIC50 value is on record for "Cc1cc(C(=O)Nc2cccc(CN)c2)c2sc(N)nc2n1" ?
output: < 4.00

input: Which pIC50 value is on record for "Cc1nc(C2(NC(=O)c3cccc4c3CC(=O)N4)CCC2)no1" ?
output: < 4.00

input: Which pIC50 value is on record for "CS(=O)(=O)NC(=O)c1cc(Cl)ccc1NS(=O)(=O)c1ccc(Oc2ccccc2Cl)cc1" ?
output: 4.91

input: Which pIC50 value is on record for "NCc1cccc(NC(=O)[C@H](NC(=O)OCc2ccccc2)c2ccc(OCC3CCC3)cc2)c1" ?
output: 4.31

input: Which pIC50 value is on record for "Cc1c(C(=O)Nc2cc(C(=O)Nc3cccnc3)ccn2)cc(C2CC2)n1C" ?
output: < 4.00

input: Which pIC50 value is on record for "c1ccc(CC2CCN(Cc3c[nH]c4ccccc34)CC2)cc1" ?
output: < 4.00

input: Which pIC50 value is on record for "CC(C)(C)NC(=O)[C@H](Nc1ccc2c(c1)CNC2)c1cc(Cl)cc2[nH]ncc12" ?
output: < 4.00

input: Which pIC50 value is on record for "Cc1ncc(-c2ccc([C@@H](NC(=O)OCc3ccccc3)C(=O)Nc3cccc(CN)c3)cc2)s1" ?
output: 4.53

input: Which pIC50 value is on record for "NCc1cccc(NC(=O)[C@@H](NC(=O)OCc2ccccc2)C2CCN(S(=O)(=O)[C@H]3CCOC3)CC2)c1" ?
output: < 4.00

input: Which pIC50 value is on record for "O=C(O)CN(c1ccc(Cl)cc1)S(=O)(=O)c1ccc(Oc2ccccc2Cl)cc1" ?
output: 4.06

input: Which pIC50 value is on record for "NCCCc1ccnc(NC(=O)c2cc(Cl)cc(NC(=O)OCc3ccccc3)c2)c1" ?
output: 4.32

input: Which pIC50 value is on record for "O=C(Nc1cc(Cl)cc(-c2cnn3ccc(C(=O)O)cc23)c1)OCc1ccccc1" ?
output: < 4.00

input: Which pIC50 value is on record for "O=C(Nc1cc(Cl)cc(C(=O)Nc2cccc(-c3cc[nH]n3)c2)c1)OCc1ccccc1" ?
output: < 4.00

input: Which pIC50 value is on record for "CC(C)(C)OC(=O)NCc1cccc(NC(=O)[C@@H](NC(=O)OCc2ccccc2)c2cccc(O)c2)c1" ?
output: < 4.00

input: Which pIC50 value is on record for "O=C1Cc2c(cc(Br)cc2C(=O)Nc2ccc3c(c2)C(=O)OC3)N1" ?
output: < 4.00

input: Which pIC50 value is on record for "O=C(O)c1cc(Cl)ccc1S(=O)(=O)NC1CCN(c2ccc(C(F)(F)F)cn2)CC1" ?
output: < 4.00

input: Which pIC50 value is on record for "NCc1cccc(NC(=O)[C@@H](NC(=O)OCc2ccccc2)c2cccc(OCC3CCC3)c2)c1" ?
output: 4.36

input: Which pIC50 value is on record for "O=C(O)C[C@H](NC(=O)OCc1ccccc1)c1ccc(OCc2ccccc2)c(Br)c1" ?
output: 4.22

input: Which pIC50 value is on record for "CC1(C)CCC([C@@H](NC(=O)OCc2ccccc2)C(=O)Nc2cccc(CN)c2)CC1" ?
output: < 4.00

input: Which pIC50 value is on record for "O=C(O)Cc1cc(NS(=O)(=O)c2ccc(Oc3ccccc3Cl)cc2)ccc1Cl" ?
output: 4.02

input: Which pIC50 value is on record for "O=C(Nc1cc(-c2cccnc2)ccn1)c1cnc(C2CC2)s1" ?
output: < 4.00
